biological target: SARS-CoV-2 Beta RBD (SARS-CoV-2 Beta); test: ELISA

binder: M8a-30 (antibody, V domains shown) VH: QVHLQQSGPELVKPGASVKISCKASGYGFSSSWMNWVKQRPGKGLEWIGRIYPGDGDTNYNDKFQGKATLTADRSSSTAYMHLTSLTSADSAVYFCARSLLYSFDYWGQGTTLTVSS VL: DVVVTQTPLSLPVSFGDQVSISCRSSQSLAGSYGHTYLSWYLHKSGQSPQLLIYGISNRFSGVPDRFSGSGSGTDFTLKISTIKPEDLGMYYCLQGTHQPLTFGAGTKLELK
EC50: > 10 µg/mL
